Test system: SW 480
Test: Growth inhibition test (MTT) for cytotoxic properties
Format: cell-based, human
Conditions: SW480; human large intestine cell line SW 480, MTT; read-out: IC50 SW 480
Counter-ions that a name gives are not always drawn.
IC50 under 20 nM gets t, anything at or over 20 nM gets f.

Please review the following examples before continuing.
compound: CCc1c2c(nc3ccccc13)-c1cc3c(c(=O)n1C2)COC(=O)[C@@]3(CC)OC(=O)[C@H](C)NC(=O)[C@H](CCCCNC(=S)Nc1ccc(OC2O[C@@H](C)[C@@H](O)[C@@H](OC)[C@@H]2O)cc1)NC(=S)Nc1ccc(OC2O[C@@H](C)[C@@H](O)[C@@H](OC)[C@@H]2O)cc1 (some centres unmarked)
qualitative label: t
//
compound: CC[C@@]1(OC(=O)[C@H](CC(C)C)NC(=O)[C@H](CCCCN)NC(=S)Nc2ccc(O[C@H]3O[C@@H](C)[C@@H](O)[C@@H](OC)[C@@H]3O)cc2)C(=O)OCc2c1cc1n(c2=O)Cc2c-1nc1cc3c(cc1c2CN1CCN(C)CC1)OCCO3 [Example 5.1, hydrochloride]
qualitative label: f

Quick check: IC50 of CCC1(OC(=O)C(C)NC(=O)[C@H](CCCCN)NC(=S)Nc2ccc(OC3OC(C)C(O)C(OCC(=O)O)C3O)cc2)C(=O)OCc2c1cc1n(c2=O)Cc2cc3cc4c(cc3nc2-1)OCO4 (some centres unmarked) [Example 2.3, hydrochloride] under 20 nM? t

Record CCC1(OC(=O)[C@H](C)NC(=O)[C@H](CCCCNC(=S)Nc2ccc(OC3O[C@@H](C)[C@@H](O)[C@@H](OC)[C@@H]3O)cc2)NC(=S)Nc2ccc(OC3O[C@@H](C)[C@@H](O)[C@@H](OC)[C@@H]3O)cc2)C(=O)OCc2c1cc1n(c2=O)Cc2cc3cc4c(cc3nc2-1)OCO4 (some centres unmarked) : is its IC50 strictly below 20 nM? t

Regarding CC[C@@]1(OC(=O)[C@H](CC(C)C)NC(=O)[C@H](CCCCN)NC(=S)Nc2ccc(O[C@H]3O[C@@H](C)[C@@H](O)[C@@H](OC)[C@@H]3O)cc2)C(=O)OCc2c1cc1n(c2=O)Cc2cc3cc4c(cc3nc2-1)OCO4 [Example 2.4, hydrochloride] , kindly confirm whether its IC50 is beneath 20 nM. t

Please check: IC50 for CCc1c2c(nc3ccccc13)-c1cc3c(c(=O)n1C2)COC(=O)C3(CC)OC(=O)[C@@H](NC(=O)[C@H](CCCCN)NC(=S)Nc1ccc(OC2OC(C)C(O)C(OC)C2O)cc1)C(C)C (some centres unmarked) [Example 1.5, hydrochloride] , strictly under 20 nM or not? f

Below 20 nM on IC50? Entry CC[C@@]1(OC(=O)[C@H](C)NC(=O)[C@H](CCCCNC(=S)Nc2ccc(OC3O[C@@H](C)[C@@H](O)[C@@H](OC)[C@@H]3O)cc2)NC(=S)Nc2ccc(OC3O[C@@H](C)[C@@H](O)[C@@H](OC)[C@@H]3O)cc2)C(=O)OCc2c1cc1n(c2=O)Cc2cc3c(N)cccc3nc2-1 (some centres unmarked) t

Determine whether this compound shows IC50 lower than 20 nM (ties excluded): CCc1c2c(nc3ccc(O)cc13)-c1cc3c(c(=O)n1C2)COC(=O)C3(CC)OC(=O)[C@@H](NC(=O)[C@H](CCCCN)NC(=S)Nc1ccc(OC2OC(C)C(O)C(OC)C2O)cc1)C(C)C (some centres unmarked) [Example 6.1, hydrochloride] f
